- MEASUREMENT NOTES: Human microsome stability assay
- Format: in vitro ADME
- MEASUREMENT CONDITIONS: 1 µM test compound, 0.5 mg/mL liver microsomal protein, 37 °C
MEASURED METRIC: Clearance of Human microsome (mL/min/kg)

COMPOUND: C[C@@H]1CN(c2ccc(C#N)c3nccnc23)C[C@H](CN2CCN(c3cc4c(cn3)C[C@H](C)NC4)CC2)O1 (single isomer, unassigned) [Example 81]
MEASURED METRIC: Clearance of Human microsome
NUMERIC RESULT: 6.15
--
COMPOUND: C[C@@H]1CN(c2ccc(C#N)c3nccnc23)C[C@H](CN2CCN(c3cc4c(cn3)[C@@H](C)NCC4)CC2)O1 (single isomer, unassigned) [Example 86]
MEASURED METRIC: Clearance of Human microsome
NUMERIC RESULT: 7.69
--
COMPOUND: C[C@@H]1Cc2cc(N3CCN(C[C@H]4CN(c5ccc(C#N)c6ncccc56)C[C@@H](C)O4)CC3)ncc2CN1 (single isomer, unassigned) [Example 70]
MEASURED METRIC: Clearance of Human microsome
NUMERIC RESULT: 7.55
--
COMPOUND: C[C@@H]1CN(c2ccc(C#N)c3ncccc23)C[C@H](CN2CCN(c3cnc4c(c3)CNC4)CC2)O1 [Example 10]
MEASURED METRIC: Clearance of Human microsome
NUMERIC RESULT: 8.61
--
COMPOUND: C[C@@H]1CN(c2ccc(C#N)c3ncccc23)C[C@H](CN2CCN(c3ccc4c(c3)CNC4)CC2)O1 [Example 7]
MEASURED METRIC: Clearance of Human microsome
NUMERIC RESULT: 8.75
--
COMPOUND: COc1ccc(N2C[C@H](CN3CCN(c4cc5c(cn4)CCNC5)CC3)O[C@H](C)C2)c2nccnc12 [Example 89]
MEASURED METRIC: Clearance of Human microsome
NUMERIC RESULT: 6.54

====

- ASSAYED SYSTEM: hTLR9 (Homo sapiens)
- Sequence (Q9NR96 26-1032): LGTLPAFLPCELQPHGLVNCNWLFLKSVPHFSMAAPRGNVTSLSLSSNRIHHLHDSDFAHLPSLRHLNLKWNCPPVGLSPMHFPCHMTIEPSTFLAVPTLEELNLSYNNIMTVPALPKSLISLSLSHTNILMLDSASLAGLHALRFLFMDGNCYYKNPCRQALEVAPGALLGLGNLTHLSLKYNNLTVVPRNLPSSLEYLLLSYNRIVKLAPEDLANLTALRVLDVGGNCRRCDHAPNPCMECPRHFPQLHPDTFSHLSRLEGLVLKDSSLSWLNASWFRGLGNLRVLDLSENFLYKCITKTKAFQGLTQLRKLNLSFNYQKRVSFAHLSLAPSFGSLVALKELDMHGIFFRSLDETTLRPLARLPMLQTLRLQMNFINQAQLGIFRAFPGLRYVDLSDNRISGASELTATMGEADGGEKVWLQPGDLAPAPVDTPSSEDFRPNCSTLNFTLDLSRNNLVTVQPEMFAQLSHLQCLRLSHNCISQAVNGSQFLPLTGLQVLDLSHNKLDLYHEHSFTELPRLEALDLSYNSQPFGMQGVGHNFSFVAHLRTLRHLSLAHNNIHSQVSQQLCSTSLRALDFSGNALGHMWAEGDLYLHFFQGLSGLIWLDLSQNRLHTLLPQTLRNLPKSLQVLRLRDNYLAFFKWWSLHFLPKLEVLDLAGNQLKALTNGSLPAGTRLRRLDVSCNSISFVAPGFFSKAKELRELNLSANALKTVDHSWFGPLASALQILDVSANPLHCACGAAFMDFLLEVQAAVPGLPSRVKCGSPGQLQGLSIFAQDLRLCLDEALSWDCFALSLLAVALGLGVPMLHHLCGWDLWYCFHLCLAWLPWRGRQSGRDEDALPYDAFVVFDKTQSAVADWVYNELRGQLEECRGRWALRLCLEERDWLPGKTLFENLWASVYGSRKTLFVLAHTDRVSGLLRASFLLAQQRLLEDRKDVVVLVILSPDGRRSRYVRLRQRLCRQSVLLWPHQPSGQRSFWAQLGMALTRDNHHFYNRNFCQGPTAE
- MEASUREMENT NOTES: HEK293-Blue-hTLR-9 cells assay (SEAP reporter, ODN2006 stimulation)
- Type: cell-based
- Set-up: host or cells: HEK293 (HEK-Blue)
- MEASUREMENT CONDITIONS: HEK293-Blue-hTLR9 cells, ODN2006, 20 hrs; read-out: HEK/hTLR9 IC50
MEASURED METRIC: IC50 (nM)

COMPOUND: C[C@@H]1CN(c2ccc(C#N)c3nccnc23)C[C@H](CN2CCN(c3ccc4c(n3)CN[C@H]4C)CC2)O1 (single isomer, unassigned)
ASSAYED SYSTEM: hTLR9 (Homo sapiens)
NUMERIC RESULT: 131

1: C[C@@H]1CN(c2ccc(C#N)c3ncccc23)C[C@H](CN2CCN(c3ccc4c(n3)CN[C@@H]4C)CC2)O1 (single isomer, unassigned)
2: C[C@@H]1CN(c2ccc(C#N)c3ncccc23)C[C@H](CN2CCN(c3cnc4c(c3)CCNC4)CC2)O1
Between 1 and 2 , which one shows the larger IC50 value? Answer with the label corresponding to your selection.
1

====

- ASSAYED SYSTEM: hTLR7 (Homo sapiens)
- Sequence (Q9NYK1 27-1049): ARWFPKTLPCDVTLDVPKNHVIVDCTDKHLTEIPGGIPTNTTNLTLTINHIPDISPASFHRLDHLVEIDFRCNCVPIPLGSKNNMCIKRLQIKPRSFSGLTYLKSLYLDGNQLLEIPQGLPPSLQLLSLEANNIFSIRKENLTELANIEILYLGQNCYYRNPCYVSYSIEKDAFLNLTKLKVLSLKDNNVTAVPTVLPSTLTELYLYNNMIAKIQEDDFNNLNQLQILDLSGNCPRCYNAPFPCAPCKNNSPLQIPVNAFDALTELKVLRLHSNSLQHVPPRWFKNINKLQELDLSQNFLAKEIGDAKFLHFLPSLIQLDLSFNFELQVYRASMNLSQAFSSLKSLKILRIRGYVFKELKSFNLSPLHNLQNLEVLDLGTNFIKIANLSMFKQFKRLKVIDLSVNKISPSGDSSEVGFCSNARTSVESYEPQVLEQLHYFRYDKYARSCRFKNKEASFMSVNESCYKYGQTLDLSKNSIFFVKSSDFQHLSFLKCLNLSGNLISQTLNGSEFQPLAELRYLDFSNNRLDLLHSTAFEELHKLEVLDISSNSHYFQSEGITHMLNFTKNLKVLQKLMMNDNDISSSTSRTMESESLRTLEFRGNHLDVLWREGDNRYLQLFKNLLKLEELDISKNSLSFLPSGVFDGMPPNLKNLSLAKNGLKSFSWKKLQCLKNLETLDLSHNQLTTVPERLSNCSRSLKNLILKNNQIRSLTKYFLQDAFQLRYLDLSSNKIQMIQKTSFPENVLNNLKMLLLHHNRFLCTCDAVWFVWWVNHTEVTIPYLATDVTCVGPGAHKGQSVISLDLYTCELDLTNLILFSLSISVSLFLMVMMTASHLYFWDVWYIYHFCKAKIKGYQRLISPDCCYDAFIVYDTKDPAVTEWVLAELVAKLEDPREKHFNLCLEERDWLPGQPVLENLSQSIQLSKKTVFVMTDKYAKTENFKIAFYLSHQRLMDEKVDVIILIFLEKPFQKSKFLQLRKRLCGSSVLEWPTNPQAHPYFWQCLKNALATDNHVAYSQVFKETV
- MEASUREMENT NOTES: HEK293-Blue-hTLR-7 cells assay (SEAP reporter, R848 stimulation)
- Format: cell-based
- Parameters: host or cells: HEK293 (HEK-Blue)
- MEASUREMENT CONDITIONS: HEK293-Blue-hTLR7 cells, R848, 20 hrs; read-out: HEK/hTLR7 IC50
pIC50: −log10 of the molar value.
MEASURED METRIC: pIC50

COMPOUND: C[C@@H]1CN(c2ccc(C#N)c3ncccc23)C[C@H](CN2CC3(C2)CN(c2ccc4c(n2)CNCC4)CCO3)O1
pIC50: 8.05
--
COMPOUND: C[C@@H]1CN(c2ccc(C#N)c3ncccc23)C[C@H](CN2CCN(c3ccc4c(c3)C(O)CNC4)CC2)O1 (stereo partly shown)
pIC50: 7.41
--
COMPOUND: Cc1nc2c(nc1N1CCN(C[C@H]3CN(c4ccc(C#N)c5ncccc45)C[C@@H](C)O3)CC1)CCNC2
pIC50: 7.96
--
COMPOUND: C[C@@H]1CN(c2ccc(C#N)c3ncccc23)C[C@H](CN2CCN(c3ccc4c(n3)CNC4)CC2)O1
pIC50: 7.92

a: C[C@@H]1CN(c2ccc(C#N)c3ncccc23)C[C@H](CN2CCC(Nc3ccc4c(c3)CNC4)C2)O1 (stereo partly shown)
b: [2H]c1nc2c(C#N)ccc(N3C[C@H](CN4CCN(c5ccc6c(n5)CN[C@@H]6C)CC4)O[C@H](C)C3)c2nc1[2H] (single isomer, unassigned)
Between a and b , which one shows the larger pIC50 value? Answer with the label corresponding to your selection.
b

P: C[C@@H]1CN(c2ccc(C#N)c3ncccc23)C[C@H](CN2CCN(c3ccc4c(c3)CNCC4)CC2)O1
Q: C[C@@H]1CN(c2ccc(C#N)c3ncccc23)C[C@H](CN2CCN(c3ccc4c(n3)[C@H](C)NC4)CC2)O1 (single isomer, unassigned)
Between P and Q , which one shows the larger pIC50 value? Answer with the label corresponding to your selection.
Q
(Q: 7.85, P: 7.38)

a: C[C@@H]1CN(c2ccc(C#N)c3ncccc23)C[C@H](CN2CCN(c3cc4c(cn3)CNCC4)CC2)O1
b: C[C@@H]1CN(c2ccc(C#N)c3nccnc23)C[C@H](CN2CCN(c3cc4c(cn3)CCN[C@@H]4C)CC2)O1 (single isomer, unassigned)
Please let me know which one, a or b , has a lower measured pIC50 value. Answer with the label corresponding to your selection.
a

Hello, the source for this data is patent EP3807270B1, in case you need it.
